# System: corn (Zea mays)
# assay info: Test B pre-/postemergence plant response
# Assay type: in vivo
# test settings: Postemergence, 31 g ai/ha; 0 to 100 scale (0 no effect, 100 complete control)
reported metric: Plant response rating, Corn

{"columns": ["compound", "measured result"],
 "data": [
  ["O=C1CCCC(O)=C1C(=O)c1cnc(-c2ccccc2)n(C2CCCCCC2)c1=O", 55],
  ["CCn1c(-c2cccc(F)c2)ncc(C(=O)C2=C(O)C3CCC(C3)C2=O)c1=O (stereo not shown)", 15],
  ["CCCn1c(-c2cc(Cl)cc(Cl)c2)ncc(C(=O)C2=C(O)CCCC2=O)c1=O", 5],
  ["O=C1CCCC(O)=C1C(=O)c1cnc(-c2ccccc2)n(C2CC[S+]([O-])CC2)c1=O (mixture of isomers)", 45],
  ["CCCCn1c(-c2ccccc2)ncc(C(=O)C2=C(O)C3CCC(C3)C2=O)c1=O (stereo not shown)", 90],
  ["CCCCn1c(C2CC2)ncc(C(=O)C2=C(O)CCCC2=O)c1=O", 0],
  ["CCCn1c(-c2ccccc2)ncc(C(=O)C2=C(O)C3CCC(C3)C2=O)c1=O (stereo not shown)", 75]
]}
